Listed here: items and their measured growth.
System: SF-268 CNS
Assay: NCI-60 one-dose screen, 48 h (100 = growth as untreated, 0 = no growth, -100 = all killed)
Settings: 10 µM unless noted
Compounds without any hit were thinned out: in the full panel of roughly 83,000, 20% have a hit. Activity calls are given as the source filed them. The calls were made as follows: active = growth percent below 10; inactive = the rest.

[
  {
    "Chemical Structure": "Nn1c(N/N=C/c2nc3ccccc3s2)n[nH]c1=S",
    "growth": "93.2% (inactive)"
  },
  {
    "Chemical Structure": "CCCCCCCn1cc2c(N[C@H](C)c3ccccc3)ncnc2n1",
    "growth": "102% (inactive)"
  },
  {
    "Chemical Structure": "COc1cc(OC)c(/C=C/S(=O)(=O)Cc2ccc(OC)c(NCC(=O)NO)c2)c(OC)c1",
    "growth": "31.9% (inactive)"
  },
  {
    "Chemical Structure": "CNC(=O)c1cc(Oc2ccc3nc(NC(=O)c4cccc(OC(F)(F)F)c4)sc3c2)ccn1",
    "growth": "81.8% (inactive)"
  },
  {
    "Chemical Structure": "C=C=COc1cccc(/C(N)=N/C(N)=N/c2nc3ccccc3s2)c1",
    "growth": "78.1% (inactive)"
  }
]

----------
Test system: EKVX NSCLC
Assay: NCI-60 one-dose screen, 48 h (100 = growth as untreated, 0 = no growth, -100 = all killed)
Details: 10 µM unless noted
The panel holds about 83,000 compounds, 20% with a hit somewhere; the sample as a whole holds those more often.
Binary label based on growth with cut-off 60%: below gives criterion met, not below gives criterion not met.

[
  {
    "Compound": "N#Cc1cnc2ccc(-c3cnc(N)nc3)cc2c1N1CCc2cc(F)c(Cl)cc21",
    "Label Value": "criterion met"
  },
  {
    "Compound": "Nc1cc(F)ccc1NC(=O)c1ccc(NC(=O)C/C=C/c2cccnc2)cc1",
    "Label Value": "criterion not met"
  },
  {
    "Compound": "CCn1c(SCC(=O)Nc2cccc(C(=O)/C=C/c3ccc(Br)cc3)c2)nc2ccccc2c1=O",
    "Label Value": "criterion not met"
  },
  {
    "Compound": "NC(N)=Nc1ccc(Nc2cccc(Oc3ccc(Cl)c(C(F)(F)F)c3)c2)cn1",
    "Label Value": "criterion met"
  },
  {
    "Compound": "Cc1cccc2c3c(sc12)C(c1ccc(F)cc1)C(C#N)=C(/N=C/c1ccc(Cl)cc1)O3 (stereo unspecified)",
    "Label Value": "criterion met"
  },
  {
    "Compound": "Cn1ccnc1C(=O)/C=C/C=C/c1ccc(C(=O)Nc2ccc(F)cc2)cc1",
    "Label Value": "criterion met"
  },
  {
    "Compound": "CC(C)(C)c1ccc(CC(=O)Nc2sc3c(c2C(N)=O)CCC(=O)C3)cc1",
    "Label Value": "criterion met"
  },
  {
    "Compound": "CCCCCc1ccc(S(=O)(=O)Nc2cc(-c3csc(NC(=O)CN4CCN(CCO)CC4)n3)ccc2OC)cc1",
    "Label Value": "criterion not met"
  },
  {
    "Compound": "O=C(NCc1ncc[nH]1)c1ccc(-c2nc3ccc4[nH]ncc4c3c3c2CCCC3)cc1",
    "Label Value": "criterion met"
  },
  {
    "Compound": "O=C(O)c1ccc(-n2cc(CNc3cc(F)c(F)c(F)c3)c(-c3cccc(F)c3)n2)cc1",
    "Label Value": "criterion not met"
  },
  {
    "Compound": "COc1ccc(NCc2cn(-c3ccc(C(=O)O)cc3)nc2-c2cc(C(F)(F)F)cc(C(F)(F)F)c2)cc1",
    "Label Value": "criterion not met"
  },
  {
    "Compound": "COc1cc(-c2nn(C(C)(C)C)cc2-c2ccnc(NCCCNS(=O)(=O)c3cccc(F)c3)n2)ccc1Cl",
    "Label Value": "criterion met"
  },
  {
    "Compound": "C=CCn1c(SCC(=O)Nc2ccc(C(=O)/C=C/c3cc(OC)c(OC)c(OC)c3)cc2)nnc1-c1c[nH]c2ccccc12",
    "Label Value": "criterion not met"
  },
  {
    "Compound": "O=C(NNc1nc2cc(F)c(F)cc2n2c(CN3CC4CNCC4C3)ccc12)c1ncccn1 (stereo unspecified)",
    "Label Value": "criterion met"
  },
  {
    "Compound": "COc1ccccc1-n1cc(C#N)c(N)c1C(=O)c1ccc(C)cc1",
    "Label Value": "criterion not met"
  },
  {
    "Compound": "O=C(Nc1ccc(N=Cc2c(O)[nH]c3ccccc23)cc1)Nc1nccs1",
    "Label Value": "criterion met"
  },
  {
    "Compound": "Fc1ccc(-c2cc3nc(C(Cl)Cl)nc(-c4ccc(F)cc4)n3n2)cc1",
    "Label Value": "criterion met"
  },
  {
    "Compound": "COc1cc(/C=N/NC(=O)c2cn(C3CC3)c3c(OC)c(N4CC5CCCNC5C4)c(F)cc3c2=O)ccc1O (stereo unspecified)",
    "Label Value": "criterion met"
  },
  {
    "Compound": "Nc1ncc(-c2ccc3ncnc(Nc4cccc(Cl)c4F)c3c2)cn1",
    "Label Value": "criterion met"
  },
  {
    "Compound": "COc1ccc(NC(=O)CSc2nnc(-c3ccc4nc(-c5ccc(OC)c(OC)c5)[nH]c4c3)o2)cc1OC",
    "Label Value": "criterion not met"
  },
  {
    "Compound": "NC(N)=Nc1ccc(Oc2cccc(NC(N)=Nc3ccc(Br)cc3)c2)cn1",
    "Label Value": "criterion not met"
  },
  {
    "Compound": "Cn1cc(CNc2nc3ccc(OC/C(=C/F)CN)cc3o2)ccc1=O",
    "Label Value": "criterion not met"
  },
  {
    "Compound": "O=S(=O)(NCCCNc1nccc(-c2[nH]c(-c3ccccc3)nc2-c2ccc(Cl)c(O)c2)n1)c1cccc2ccccc12",
    "Label Value": "criterion met"
  },
  {
    "Compound": "Cc1cccc2c3c(sc12)C(c1ccc(Cl)cc1)c1c(nc(CC(=O)Nc2ccccc2)[nH]c1=O)O3 (stereo unspecified)",
    "Label Value": "criterion not met"
  },
  {
    "Compound": "CNC(=O)c1cc(-c2ccc(NS(=O)(=O)c3ccc(C)cc3)cc2)nc2cccnc12",
    "Label Value": "criterion not met"
  },
  {
    "Compound": "NC(N)=Nc1ccc(Oc2cccc(NC(N)=Nc3ccc(Cl)c(C(F)(F)F)c3)c2)cc1",
    "Label Value": "criterion not met"
  }
]

----------
Tested on: MALME-3M melanoma
Assay: NCI-60 one-dose screen, 48 h
Settings: 10 µM unless noted
This is part of a sample that, as a whole, favours compounds with a hit. Of some 83,000 tested, about 20% had one in any assay. Active and inactive are the calls of the source. Rule for the calls: active = growth percent below 10; inactive = the rest.
Possible outcomes: yes = active, no = inactive

[
  {
    "Compound": "Nc1nc(-c2cccc([N+](=O)[O-])c2)c(N=Nc2ccc([N+](=O)[O-])cc2Cl)s1",
    "Label Value": "yes"
  },
  {
    "Compound": "COc1cc(-c2nnc(SCc3ccc(O)c4ncccc34)n2-c2ccccc2)cc(OC)c1OC",
    "Label Value": "yes"
  },
  {
    "Compound": "COc1cc(OC)c(S(N)(=O)=O)cc1C(=O)/C=C/c1ccc(Cl)cc1",
    "Label Value": "no"
  },
  {
    "Compound": "C=C(C=O)[C@@H]1CC[C@]2(C)[C@H](CC=C3[C@H]4[C@@H](C)[C@H](C)CC[C@]4(C(=O)OC)CC[C@]32C)[C@@]1(C)CCC#N",
    "Label Value": "yes"
  },
  {
    "Compound": "Nc1nc(Nc2ccccc2SSc2ccccc2Nc2nc(N)nc(-c3cccc(Br)c3)n2)nc(-c2cccc(Br)c2)n1",
    "Label Value": "no"
  },
  {
    "Compound": "CC1(C)CC[C@]2(C(=O)N3CCOCC3)CC[C@]3(C)C(=CC[C@@H]4[C@@]5(C)C/C(=C/c6ccccn6)C(=O)C(C)(C)[C@@H]5CC[C@]43C)[C@@H]2C1",
    "Label Value": "no"
  },
  {
    "Compound": "N#Cc1cnc2ccc(-c3cnc(N)nc3)cc2c1N1CCc2cc(F)c(Cl)cc21",
    "Label Value": "yes"
  },
  {
    "Compound": "NC(=O)c1cccc(-n2ccc3cc(NC(=O)Nc4ccc(N5CCOCC5)c(C(F)(F)F)c4)ccc32)n1",
    "Label Value": "no"
  },
  {
    "Compound": "O=C(c1ccc(O)cc1)[C@@H]1CN[C@@]2(C(=O)Nc3ccccc32)[C@H]1c1ccc(F)cc1",
    "Label Value": "no"
  },
  {
    "Compound": "C=C(C)[C@@H]1CC[C@]2(C(=O)NCCCCCN(CCC#N)CCC#N)CC[C@]3(C)[C@H](CC[C@@H]4[C@@]5(C)CCC(=O)C(C)(C)[C@@H]5CC[C@]43C)[C@@H]12",
    "Label Value": "no"
  },
  {
    "Compound": "COc1cc2oc(-c3cccc(NC(=O)c4cc(N)ccc4Cl)c3)cc(=O)c2c(OC)c1OC",
    "Label Value": "no"
  },
  {
    "Compound": "CCN(CC)CCn1c2ccc(O)cc2c2sc3cc(OC)ccc3c(=O)c21",
    "Label Value": "no"
  },
  {
    "Compound": "Cc1ccc(S(=O)(=O)NCCNc2nc(Nc3ccc(N4CCN(C)CC4)cc3)nc3ccsc23)cc1",
    "Label Value": "no"
  },
  {
    "Compound": "CC(=O)Nc1cccc(Nc2nc(N[C@@H](C)c3ccccc3)c3ccccc3n2)c1",
    "Label Value": "no"
  },
  {
    "Compound": "O=S(=O)(NC1c2ccccc2C[C@H]1O)c1ccc(Cl)cc1Cl (some centres undefined)",
    "Label Value": "no"
  },
  {
    "Compound": "C=C1CC[C@@H]2[C@]3(C)COC(c4ccccc4)O[C@@H]3CC[C@@]2(C)[C@@H]1C/C=C1/C(=O)OC[C@H]1O (some centres undefined)",
    "Label Value": "no"
  },
  {
    "Compound": "O=C1CCCc2nc(Nc3ccc(S(=O)(=O)Nc4ccc([N+](=O)[O-])cc4)cc3)ncc21",
    "Label Value": "no"
  },
  {
    "Compound": "CN1CCN(c2nc(-c3csc(-c4ccccc4)n3)cc3ccccc23)CC1",
    "Label Value": "no"
  },
  {
    "Compound": "CS(=O)(=O)Nc1cc(-c2ccc3ncc(C#N)c(N[C@H](CO)c4ccccc4)c3c2)cnc1Cl",
    "Label Value": "no"
  },
  {
    "Compound": "Fc1ccc(-c2cc3nc(C(Cl)Cl)nc(-c4ccco4)n3n2)cc1",
    "Label Value": "no"
  },
  {
    "Compound": "COc1cc(/C=C2\\C(=O)Nc3ccccc32)ccc1OCc1ccc(F)cc1",
    "Label Value": "no"
  },
  {
    "Compound": "C#Cc1nc(C(C)=O)cs1",
    "Label Value": "no"
  },
  {
    "Compound": "CCN(CC)c1ccc2c(c1)Oc1nc(N)c(C#N)c(N)c1C2Sc1ccc(F)cc1 (centres undefined)",
    "Label Value": "yes"
  },
  {
    "Compound": "C=C(C)[C@@H]1CC[C@]2(COC)CC[C@]3(C)[C@H](CC[C@@H]4[C@@]5(C)CCCNC(C)(C)[C@@H]5CC[C@]43C)[C@@H]12",
    "Label Value": "yes"
  },
  {
    "Compound": "Cc1ccc(C(=O)NN2C(=O)/C(=C/C=C/c3ccco3)SC2=S)cc1",
    "Label Value": "no"
  },
  {
    "Compound": "O=C(c1ccc(O)c(C(=O)N2Cc3ccc(OCCC[P+](c4ccccc4)(c4ccccc4)c4ccccc4)cc3C2)c1)N1Cc2cccc(F)c2C1",
    "Label Value": "no"
  },
  {
    "Compound": "CC1(C)[C@@H](O)CC[C@]2(C)[C@H]3CC[C@@H]4[C@H]5[C@H](C(=O)/C=C\\c6ccc([N+](=O)[O-])cc6)CC[C@]5(O)CC[C@@]4(C)[C@]3(C)CC[C@@H]12",
    "Label Value": "no"
  },
  {
    "Compound": "COC(=O)c1[nH]nc2c1C1(C(=O)N(C)c3ccccc31)C(C#N)=C(N)O2 (centres undefined)",
    "Label Value": "no"
  },
  {
    "Compound": "Cn1ccnc1C(=O)/C=C/c1ccc(NC(=O)c2c(F)c(F)c(F)c(F)c2F)cc1",
    "Label Value": "no"
  },
  {
    "Compound": "C=CC(=O)N1CC=C(c2cc3c(N[C@H](C)c4ccccc4)ncnc3[nH]2)CC1",
    "Label Value": "no"
  },
  {
    "Compound": "CS(=O)(=O)c1ccc(-c2nn(-c3ccccc3)cc2/C=N/NC(=O)c2nc(N)n[nH]2)cc1",
    "Label Value": "no"
  },
  {
    "Compound": "COc1ccc2c(c1)c(-c1cc(N)n3nc(-c4cn(C)c5ccc(OC)cc45)cc3n1)cn2C",
    "Label Value": "no"
  },
  {
    "Compound": "C=C(C=O)[C@@H]1CC[C@]2(C)[C@H](C(=O)C=C3[C@H]4C[C@](C)(C(=O)OC)CC[C@]4(C)CC[C@]32C)[C@@]1(C)CCC#N",
    "Label Value": "yes"
  },
  {
    "Compound": "Cc1ccc(C2=Nn3c(nnc3-c3ccccc3)SC2)cc1",
    "Label Value": "no"
  }
]
